Origin of measurements: the supplement of paper PMC3334620

- assay system: Ybr033w (UniProt P38073)
- Sequence: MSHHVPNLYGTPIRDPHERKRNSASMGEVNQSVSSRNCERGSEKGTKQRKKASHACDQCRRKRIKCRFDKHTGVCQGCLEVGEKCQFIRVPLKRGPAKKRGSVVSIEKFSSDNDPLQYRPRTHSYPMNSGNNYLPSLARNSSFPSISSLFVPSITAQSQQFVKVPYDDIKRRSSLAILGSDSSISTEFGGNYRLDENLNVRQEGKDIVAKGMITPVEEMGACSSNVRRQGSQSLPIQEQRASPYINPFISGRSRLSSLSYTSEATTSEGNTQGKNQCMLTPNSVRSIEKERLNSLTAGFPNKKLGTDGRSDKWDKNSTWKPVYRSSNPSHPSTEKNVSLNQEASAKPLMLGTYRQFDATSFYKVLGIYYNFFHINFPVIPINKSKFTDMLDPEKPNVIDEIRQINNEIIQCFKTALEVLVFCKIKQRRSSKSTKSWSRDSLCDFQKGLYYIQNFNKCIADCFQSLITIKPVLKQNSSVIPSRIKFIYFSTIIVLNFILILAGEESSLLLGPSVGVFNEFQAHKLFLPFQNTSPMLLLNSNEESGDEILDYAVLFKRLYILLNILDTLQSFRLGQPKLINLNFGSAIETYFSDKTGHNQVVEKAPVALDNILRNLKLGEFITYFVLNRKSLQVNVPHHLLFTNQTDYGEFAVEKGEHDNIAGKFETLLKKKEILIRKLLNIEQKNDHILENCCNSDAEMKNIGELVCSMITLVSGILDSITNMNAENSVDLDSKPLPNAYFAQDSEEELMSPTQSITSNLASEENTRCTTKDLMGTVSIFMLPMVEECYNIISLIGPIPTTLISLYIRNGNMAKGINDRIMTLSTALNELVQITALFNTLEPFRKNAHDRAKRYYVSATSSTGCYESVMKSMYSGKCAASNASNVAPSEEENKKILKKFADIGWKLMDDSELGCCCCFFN
- test name: PBM E-score (8-mer binding enrichment) (E-score (-0.5 to 0.5)); higher = stronger / more preferred TF binding
- test conditions: protein concentration: 200 nM; construct: GST-full length
In all, about 33,000 sequences were measured (“E-score (-0.5 to 0.5)”: median about -0.012, highest 2% from about 0.29 on). Shown is part of a subset that was picked to be rich in the highest values.

>  <sequence>
ATATGAGC

>  <PBM E-score>
-0.0174

$$$$
>  <sequence>
GTGGCTAA

>  <PBM E-score>
0.0232

$$$$
>  <sequence>
GAAAAACC

>  <PBM E-score>
0.386

$$$$
>  <sequence>
TCAAAACA

>  <PBM E-score>
0.298

$$$$
>  <sequence>
ATTTAATA

>  <PBM E-score>
0.325

$$$$
>  <sequence>
CCAAAACA

>  <PBM E-score>
-0.026

$$$$
>  <sequence>
AGGGTGAT

>  <PBM E-score>
-0.055

$$$$
>  <sequence>
ATCCACAC

>  <PBM E-score>
-0.00864

$$$$
>  <sequence>
GAAGAACC

>  <PBM E-score>
0.248

$$$$
>  <sequence>
ACAGGTGA

>  <PBM E-score>
0.0969

$$$$
>  <sequence>
ATTTAGTA

>  <PBM E-score>
0.376

$$$$
